Reference source for all entries: ChEMBL document CHEMBL1687796

test system: Klebsiella sp.; test: Antibacterial activity against Klebsiella spp. by broth microdilution method; assay type: functional
RESULT TYPE: MIC50 (µg/mL)
Your answer should be a plain number; it is taken to be in µg/mL.

Please review the following examples before continuing.
COMPOUND	OUTPUT UNIT	MIC50
CN[C@@H]1[C@@H](O)[C@@H](O[C@@H]2[C@@H](O)[C@H](O[C@H]3OC(CNCCO)=CC[C@H]3N)[C@@H](N)C[C@H]2NC(=O)[C@@H](O)CCN)OC[C@]1(C)O	µg/mL	0.5
CN(C)c1cc(NC(=O)CNC(C)(C)C)c(O)c2c1C[C@H]1C[C@H]3[C@H](N(C)C)C(O)=C(C(N)=O)C(=O)[C@@]3(O)C(O)=C1C2=O	µg/mL	1
O=C(O)c1cn(C2CC2)c2cc(N3CCNCC3)c(F)cc2c1=O	µg/mL	16
C[C@@H](O)[C@H]1C(=O)N2C(C(=O)O)=C(SCCNC=N)C[C@H]12 [IMIPENEM ANHYDROUS]	µg/mL	0.25

Attention now shifts to the item below.
Task: Name the recorded MIC50 of the item NCC[C@H](O)C(=O)N[C@@H]1C[C@H](N)[C@@H](O[C@H]2O[C@H](CN)[C@@H](O)[C@H](O)[C@H]2O)[C@H](O)[C@H]1O[C@H]1O[C@H](CO)[C@@H](O)[C@H](N)[C@H]1O in your answer.
Result: 32
